Every entry's value here was drawn from patent US5508437A.

molecular target: Bovine Striatum (3H-CCK-8-(SO3 H) receptor binding) (Bos taurus, UniProt P79266); construct: tissue homogenate (striatum approximately 0.26 mg protein in 2 mL final volume); from tissue; host or cells: bovine striatum membrane homogenate; experiment: In vitro receptor binding assay, 3H-CCK-8-(SO3H), bovine striatum homogenate; conditions: 3H-CCK-8-(SO3H) 0.15 nM, 30 min at 25° C., bovine striatum homogenate; read-out: Bovine Striatum IC50 (concentration to inhibit 50% of specific 3H-CCK-8-(SO3H) binding)
Sequence (P79266 whole entry): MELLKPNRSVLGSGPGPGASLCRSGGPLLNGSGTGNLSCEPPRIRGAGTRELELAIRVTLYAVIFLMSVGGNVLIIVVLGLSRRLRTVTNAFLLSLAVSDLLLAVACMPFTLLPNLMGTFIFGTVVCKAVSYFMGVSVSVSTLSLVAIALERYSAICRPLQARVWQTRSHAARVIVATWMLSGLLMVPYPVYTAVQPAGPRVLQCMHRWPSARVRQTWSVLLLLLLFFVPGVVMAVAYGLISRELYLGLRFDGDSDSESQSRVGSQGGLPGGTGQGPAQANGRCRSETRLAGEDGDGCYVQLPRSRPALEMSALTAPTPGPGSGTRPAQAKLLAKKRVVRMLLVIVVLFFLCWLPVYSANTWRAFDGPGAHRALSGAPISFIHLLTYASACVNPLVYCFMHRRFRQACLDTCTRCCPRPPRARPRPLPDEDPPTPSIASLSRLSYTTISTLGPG
Starred links: 1 amine or outer side, 2 acyl side, 3 side chain; linkers in the order of their positions; H or OH if unused. Non-standard residues stand in square brackets, D forms with d. Residues, ends and D or L forms follow the SMILES beside them. *: point of attachment. X12 = O=C(O)Cc1cccc(CC(N[*:1])C(=O)[*:2])c1; X2 = O=C(CCc1ccc(Cc2nnn[nH]2)cc1)*; NMeF = CN[C@@H](Cc1ccccc1)C(=O)O; Nle = CCCC[C@H](N)C(=O)O
READOUT LABEL: pIC50
Scale for pIC50: -log10 of concentration given in mol/L; no unit attached.

COMPOUND	pIC50
CCCC[C@H](NC(=O)CCc1ccc(Cc2nnn[nH]2)cc1)C(=O)NCC(=O)N[C@@H](Cc1c[nH]c2ccccc12)C(=O)N[C@@H](CCCC)C(=O)N[C@@H](CC(=O)O)C(=O)N(C)[C@@H](Cc1ccccc1)C(N)=O [Example 66] (X2-[Nle]GW[Nle]D[NMeF]-NH2)	6.80

Task item: Requested field: pIC50. Item: CSCC[C@H](NC(=O)C(Cc1cccc(CC(=O)O)c1)NC(C)=O)C(=O)NCC(=O)N[C@@H](Cc1c[nH]c2ccccc12)C(=O)N[C@@H](CCSC)C(=O)N[C@@H](CC(=O)O)C(=O)N[C@@H](Cc1ccccc1)C(N)=O (some centres unmarked) [Example 58] (Ac-[X12]MGWMDF-NH2)
Reply: 7.28
